Tested on: MKL-2
assay_overview: qHTS assay to identify novel small-molecules to repurpose for Merkel cell carcinoma treatment (AID 1296009); also: nearly all actives have a fitted effect of over 60% in size
applied_conditions: MCC and control cell lines, CellTiter-Glo viability, 72 h; series mostly up to 46 µM
Records with an inconclusive call do not appear. Active and inactive are the calls of the source. Calls follow the shape of the dose curve; as a rule, active = well fitted inhibition curve with a large enough effect; inconclusive = small, poorly fitted or top-dose-only effect; inactive = flat fitted curve, though single readings scatter.
Write down one outcome, taken from active, inactive

Q: Entry CO[C@H]1C=CC=C(C)C(=O)NC2=CC(=O)C(NCCN(C)C)=C(C[C@@H](C)C[C@H](OC)[C@@H](O)[C@@H](C)C=C(C)[C@@H]1OC(N)=O)C2=O : call = ?
Result: active

Q: Entry Cc1nc(N)sc1-c1ccnc(Nc2ccc(N3CCOCC3)cc2)n1 : call = ?
Result: inactive

Q: Entry Cc1c[nH]c(C=C2C(=O)Nc3ccccc32)c1CCC(=O)O : call = ?
Result: inactive

Q: Entry COc1ccc(-c2cc(=O)c3c(O)cc(O)cc3o2)cc1O : call = ?
Result: inactive

Q: Entry CCN1CCC[C@H]1CNC(=O)c1cc(S(N)(=O)=O)ccc1OC : call = ?
Result: inactive

Q: Entry Cn1cc(C=C2C(=O)Nc3cccnc32)c2ccccc21 : call = ?
Result: inactive

Q: Entry OC[C@H]1O[C@@H](Oc2cc(O)cc(C=Cc3ccc(O)cc3)c2)[C@H](O)[C@@H](O)[C@H]1O : call = ?
Result: inactive

Q: Entry CC(C)=CC[C@@H](O)C1=CC(=O)c2c(O)ccc(O)c2C1=O : call = ?
Result: active

Q: Entry CCCNC(=O)NS(=O)(=O)c1ccc(Cl)cc1 : call = ?
Result: inactive

Q: Entry C[N+](C)(C)CCCCCC[N+](C)(C)C : call = ?
Result: inactive

Q: Entry Nc1ncnc2c1ncn2[C@@H]1O[C@@H](CO)[C@H](O)[C@H]1O : call = ?
Result: inactive

Q: Entry COc1ccc2c(Oc3ccc(NC(=O)c4c(C)n(CC(C)(C)O)n(-c5ccccc5)c4=O)nc3)ccnc2c1 : call = ?
Result: inactive

Q: Entry COc1cc2nc(-c3ccc(N4CCN(C)CC4)cc3)nc(NCCN3CCOCC3)c2cc1OC : call = ?
Result: active
